The measured values listed here are drawn from patent US9169241B2.

# System: A172
# protocolDescription: Cell vitality assay (ATP assay, CellTiter-Glo)
# Assay type: cell-based
# condition: Homo sapiens, A 172; A172, 72 h; Table IIa; read-out: IC50 ATP-Assay after 72 h A172
pIC50: −log10 of the molar value.
// reported pIC50 per item

COC(=O)c1sccc1S(=O)(=O)Nc1ccc(Oc2ccnc3cc(OCCCN4CCN(C)CC4)c(OC)cc23)c(F)c1 = ≥ 4.90
COc1cc2c(Oc3ccc(NS(=O)(=O)c4ccccc4C(F)(F)F)cc3F)ccnc2cc1OCCCN1CCCCC1 = ≥ 4.90
COc1cc2c(Oc3ccc(NS(=O)(=O)c4cc(F)ccc4F)cc3F)ccnc2cc1OCCCN1CCCCC1C (stereo not shown) = ≥ 4.90

# ---- query molecule ----
Lab note: COc1cc2c(Oc3ccc(NS(=O)(=O)c4cccc(Cl)c4F)cc3F)ccnc2cc1OCCCN1CCCC(C)C1 (stereo not shown) gave pIC50 of ≥ 4.90

====

Listing of entries alongside the reported pIC50.
# Tested on: SF126
# protocolDescription: Cell vitality assay (ATP assay, CellTiter-Glo)
# Format: cell-based
# condition: Homo sapiens, SF-126; SF126, 72 h; Table IIa; read-out: IC50 ATP-Assay after 72 h SF126
pIC50: −log10 of the molar value.

Past entries and their recorded results:
COc1cc2c(Oc3ccc(NS(=O)(=O)c4ccc(F)c(F)c4F)cc3F)ccnc2cc1OCCCN1CCCC(C)C1 (stereo not drawn) = ≥ 4.90
COc1cc2c(Oc3ccc(NS(=O)(=O)c4cccc(-c5ccccc5)c4)cc3F)ccnc2cc1OCCCN1CCCCC1 = ≥ 4.90

We now examine a further compound.
Query COc1cc2c(Oc3ccc(NS(=O)(=O)c4ccccc4Cl)cc3F)ccnc2cc1OCCCN1CCN(C)CC1 yields pIC50 of ≥ 4.90

====

# targetOrTestSystem: wild type AXL (wtAXL) receptor tyrosine kinase (Homo sapiens)
# Construct: WtAXL cDNA was cloned into vector pLXSN(ESK) and transfected into Phoenix E packaging cells
# Sequence (P30530 26-894): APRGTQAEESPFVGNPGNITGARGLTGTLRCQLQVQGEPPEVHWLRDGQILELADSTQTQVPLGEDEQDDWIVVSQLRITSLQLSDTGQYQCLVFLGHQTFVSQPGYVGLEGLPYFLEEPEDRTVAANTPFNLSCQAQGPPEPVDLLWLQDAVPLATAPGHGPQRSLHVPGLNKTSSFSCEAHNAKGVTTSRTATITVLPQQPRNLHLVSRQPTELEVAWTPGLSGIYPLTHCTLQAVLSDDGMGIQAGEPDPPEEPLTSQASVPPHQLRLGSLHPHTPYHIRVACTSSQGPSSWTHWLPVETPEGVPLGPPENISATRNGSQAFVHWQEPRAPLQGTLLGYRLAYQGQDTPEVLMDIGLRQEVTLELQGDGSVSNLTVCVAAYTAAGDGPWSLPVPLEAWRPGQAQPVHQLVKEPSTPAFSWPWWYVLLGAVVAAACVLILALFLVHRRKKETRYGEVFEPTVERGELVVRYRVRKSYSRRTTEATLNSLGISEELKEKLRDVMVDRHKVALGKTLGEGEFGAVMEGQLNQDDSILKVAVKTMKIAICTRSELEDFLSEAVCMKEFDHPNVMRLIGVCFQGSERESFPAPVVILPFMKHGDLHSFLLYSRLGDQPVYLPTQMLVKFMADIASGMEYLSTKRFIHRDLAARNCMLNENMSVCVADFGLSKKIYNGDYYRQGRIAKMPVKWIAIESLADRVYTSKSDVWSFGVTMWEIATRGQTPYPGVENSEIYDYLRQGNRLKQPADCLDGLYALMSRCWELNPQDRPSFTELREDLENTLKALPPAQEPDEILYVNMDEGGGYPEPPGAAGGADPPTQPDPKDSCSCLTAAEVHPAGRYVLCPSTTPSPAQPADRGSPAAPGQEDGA
# protocolDescription: NIH-3T3-AXL cellular kinase assay (pY-AXL-ELISA)
# condition: NIH-3T3-AXL (clone 22) cells, serum depleted, compounds 1 h; Table Ia
pIC50: −log10 of the molar value.
pIC50: recorded values

// solved cases for pIC50 follow
COc1cc2c(Oc3ccc(NS(=O)(=O)c4c(F)cccc4F)cc3Cl)ccnc2cc1OCCCN1CCN(C)CC1 = > 6.30
COc1cc2c(Oc3ccc(NS(=O)(=O)c4ccco4)cc3F)ccnc2cc1OCCCN(C)C = 5.52 to 6.30

response.value for COc1cc2c(Oc3ccc(NS(=O)(=O)c4ccc(Cl)s4)cc3F)ccnc2cc1OCCCN1CCCCC1C (stereo not shown) (field: pIC50) = > 6.30

The value of pIC50 measured for the molecule COc1cc2c(Oc3ccc(NS(=O)(=O)c4c(F)cccc4F)cc3F)ccnc2cc1OCCCN1CCCCC1C (stereo not shown) turned out to be > 6.30

Form field pIC50, entry COc1cc2c(Oc3ccc(NS(=O)(=O)c4ccccc4Cl)cc3F)ccnc2cc1OCCCN1CCCC(C)C1 (stereo not shown) : > 6.30

Recorded result, COc1cc2c(Oc3ccc(NS(=O)(=O)c4cccs4)cc3F)ccnc2cc1OCCCN1CCCCC1C (stereo not shown) , pIC50: > 6.30

Quick note, pIC50 for COc1cc2c(Oc3ccc(NS(=O)(=O)c4csc5ccccc45)cc3F)ccnc2cc1OCCCN1CCCCC1C (stereo not shown) landed at 5.52 to 6.30
